# Inhibition values compiled below
tested on: Klebsiella pneumoniae; conditions: Concentration 20 uM; ASSAY_TEST Inhibition of Bacterial Growth; detection method Absorption (OD600); MEDIA CAMHB; plate type 384well; NBS; CORNING #3640; time 18 hr
Description: Antibacterial activity against Klebsiella pneumoniae MDR ATCC 70063 (CO-ADD:GN_003); MIC in CAMBH media using NBS plates, by OD(600)
Potency and affinity values are given separately.
The figure you give is taken to be in %; do not add the unit.

Solved cases (2 shown):
> print(dat)
                                   compound  readout.name  reading
1  FC(F)(F)c1cc(NCCc2ccccc2)nc(-c2ccccn2)n1    Inhibition    -3.94
2  O=C1Nc2ccc(Br)cc2C12NCCc1c2[nH]c2ccccc12 (configuration not stated)    Inhibition     4.49

Q: What value of measured Inhibition is listed for "COc1cncc(-c2cncc(N3CCN(c4ccncc4)CC3)n2)c1" ?
Ans: 19.7

Q: Query: Inhibition; subject: "Cc1ccc(NC(=O)c2nc[nH]c2C(=O)Nc2nc3ccccc3[nH]2)c(C)c1"
Ans: 13.9

Q: Given the entry "O=C(Nc1cnc2ccccc2c1)c1cccc(-n2cnnn2)c1" , report its measured Inhibition.
Ans: 8.59

Q: Request the reported Inhibition associated with "Nc1nccc2ccc(Oc3ccncc3)cc12"
Ans: 18.43

Q: What Inhibition value was documented for this compound, "COc1cc(Br)cc2cc(C(=O)Nc3cccc(C(F)(F)F)c3)c(=O)oc12" ?
Ans: 7.93

Q: Consider the compound shown here: "COc1ccc(C2(C(=O)Nc3ccc(Br)cc3)CCCC2)cc1" What is its recorded Inhibition?
Ans: 17.05
